- test.summary: Single-dose plasma pharmacokinetics after i.g. administration
- Assay type: in vivo, SD rats
- condition.description: SD, rat, plasma, po; i.g. 1 mg/kg single dose, female rats
measured.endpoint: AUC(0-inf)
Respond with a number, then the unit of measure.

Q: Bench note: what AUC(0-inf) did C[C@H]1CC[C@@H]2N(C1)C[C@H]1[C@@H]3C[C@H]4[C@@H](CC(=O)[C@H]5C[C@@H](O)CC[C@@]54C)[C@@H]3CC[C@@H]1[C@]2(C)O [verticinone, Verticinone] show?
A: 15.3 ng·h/mL

---

- test.summary: Plasma protein binding in vitro by ultrafiltration, human plasma
- Type: in vitro ADME, humans
- condition.description: human, plasma; humans, concentration range 5~100 ng/mL
measured.endpoint: fraction unbound at 30 min

Q: Can you look up the measured fraction unbound at 30 min of C[C@H]1CC[C@@H]2N(C1)C[C@H]1[C@@H]3C[C@H]4[C@@H](CC(=O)[C@H]5C[C@@H](O)CC[C@@]54C)[C@@H]3CC[C@@H]1[C@]2(C)O [verticinone, Verticinone] for me?
A: 0.054 to 0.105

---

- test.summary: Multiple-dose (successive i.g.) plasma pharmacokinetics
- Format: in vivo, SD rats
- condition.description: SD, rat, plasma, po; successive i.g. 2 mg/kg, female rats
measured.endpoint: AUC(0-t) (ng·h/mL)
Only the number, expressed in ng·h/mL, is required.

Q: Quick check: AUC(0-t) of `C[C@H]1CC[C@@H]2N(C1)C[C@H]1[C@@H]3C[C@H]4[C@@H](CC(=O)[C@H]5C[C@@H](O)CC[C@@]54C)[C@@H]3CC[C@@H]1[C@]2(C)O` ?
A: 36.1

---

- test.summary: Multiple-dose (successive i.g.) plasma pharmacokinetics
- Type: in vivo, SD rats
- condition.description: SD, rat, plasma, po; successive i.g. 2 mg/kg, female rats; read-out: t1/2z (converted)
measured.endpoint: half-life (h)
The reply should contain only the number, in h.

Q: Recorded half-life of `C[C@H]1CC[C@@H]2N(C1)C[C@H]1[C@@H]3C[C@H]4[C@@H](CC(=O)[C@H]5C[C@@H](O)CC[C@@]54C)[C@@H]3CC[C@@H]1[C@]2(C)O` , please.
A: 5.94

---

- test.summary: Multiple-dose (successive i.g.) plasma pharmacokinetics
- Format: in vivo, SD rats
- condition.description: SD, rat, plasma, po; successive i.g. 2 mg/kg, male rats
- Protocol: Pharmacokinetic studies of verticinone after intravenous (i.v.) and intragastrical (i.g.) administration to rats were designed to determine pharmacokinetic parameters and absolute bioavailability. […] The quantification of verticinone was performed by a LC-MS method based on the previously reported method with slight modifications. […] The pharmacokinetic parameters were calculated by the DAS 2.0 software (Chinese Pharmacological Association, Beijing, China) using a standard non-compartmental method. […]
measured.endpoint: AUC(0-t) (ng·h/mL)
Write the value in ng·h/mL as a bare number.

Q: Bench note: what AUC(0-t) did C[C@H]1CC[C@@H]2N(C1)C[C@H]1[C@@H]3C[C@H]4[C@@H](CC(=O)[C@H]5C[C@@H](O)CC[C@@]54C)[C@@H]3CC[C@@H]1[C@]2(C)O [verticinone, Verticinone] show?
A: 439

---

- test.summary: Single-dose plasma pharmacokinetics after i.g. administration
- Type: in vivo, SD rats
- condition.description: SD, rat, plasma, po; i.g. 1 mg/kg single dose, male rats
measured.endpoint: AUC(0-inf) (ng·h/mL)
Respond numerically; units are ng·h/mL and should not be typed.

Q: Name the reported AUC(0-inf) value associated with the molecule `C[C@H]1CC[C@@H]2N(C1)C[C@H]1[C@@H]3C[C@H]4[C@@H](CC(=O)[C@H]5C[C@@H](O)CC[C@@]54C)[C@@H]3CC[C@@H]1[C@]2(C)O`
A: 167

---

- test.summary: Multiple-dose (successive i.g.) plasma pharmacokinetics
- Assay type: in vivo, SD rats
- condition.description: SD, rat, plasma, po; successive i.g. 2 mg/kg, female rats; read-out: Vz/F
measured.endpoint: Vd/F (L/kg)
Write the value in L/kg as a bare number.

Q: // query Vd/F value for entry `C[C@H]1CC[C@@H]2N(C1)C[C@H]1[C@@H]3C[C@H]4[C@@H](CC(=O)[C@H]5C[C@@H](O)CC[C@@]54C)[C@@H]3CC[C@@H]1[C@]2(C)O`
A: 485

---

- test.summary: Plasma protein binding in vitro by ultrafiltration, rat plasma
- Type: in vitro ADME, rats
- condition.description: rat plasma, 100 ng/mL, ultrafiltration, n = 4; read-out: Protein binding rates (%) (converted)
measured.endpoint: fraction unbound at 30 min, 100 ng/mL
Give the value as a plain number.

Q: Fill blank: measured fraction unbound at 30 min, 100 ng/mL of the compound `C[C@H]1CC[C@@H]2N(C1)C[C@H]1[C@@H]3C[C@H]4[C@@H](CC(=O)[C@H]5C[C@@H](O)CC[C@@]54C)[C@@H]3CC[C@@H]1[C@]2(C)O` is ____.
A: 0.102

---

- test.summary: Plasma pharmacokinetics after i.v. administration
- Format: in vivo, SD rats
- condition.description: SD, rat, plasma, iv; i.v. 0.4 mg/kg, female rats
- Description: Pharmacokinetic studies of verticinone after intravenous (i.v.) and intragastrical (i.g.) administration to rats were designed to determine pharmacokinetic parameters and absolute bioavailability. […] The quantification of verticinone was performed by a LC-MS method based on the previously reported method with slight modifications. […] The pharmacokinetic parameters were calculated by the DAS 2.0 software (Chinese Pharmacological Association, Beijing, China) using a standard non-compartmental method. […]
measured.endpoint: AUC(0-t) (ng·h/mL)
Unit ng·h/mL implied. Number only.

Q: Requested read-out: AUC(0-t). Entry: `C[C@H]1CC[C@@H]2N(C1)C[C@H]1[C@@H]3C[C@H]4[C@@H](CC(=O)[C@H]5C[C@@H](O)CC[C@@]54C)[C@@H]3CC[C@@H]1[C@]2(C)O`
A: 65.6

---

- test.summary: Single-dose plasma pharmacokinetics after i.g. administration
- Format: in vivo, SD rats
- condition.description: SD, rat, po; i.g. 4 mg/kg single dose, female rats, plasma, n = 5
measured.endpoint: Cmax (ng/mL)
Reply numerically in ng/mL, unit not repeated.

Q: Reported Cmax for C[C@H]1CC[C@@H]2N(C1)C[C@H]1[C@@H]3C[C@H]4[C@@H](CC(=O)[C@H]5C[C@@H](O)CC[C@@]54C)[C@@H]3CC[C@@H]1[C@]2(C)O [verticinone, Verticinone] : what is it?
A: 12.6

---

- test.summary: Single-dose plasma pharmacokinetics after i.g. administration
- Type: in vivo, SD rats
- condition.description: SD, rat, plasma, po; i.g. 4 mg/kg single dose, female rats
measured.endpoint: AUC(0-inf)

Q: Need AUC(0-inf) of `C[C@H]1CC[C@@H]2N(C1)C[C@H]1[C@@H]3C[C@H]4[C@@H](CC(=O)[C@H]5C[C@@H](O)CC[C@@]54C)[C@@H]3CC[C@@H]1[C@]2(C)O` , thanks.
A: 27.1 ng·h/mL

---

- test.summary: Single-dose plasma pharmacokinetics after i.g. administration
- Format: in vivo, SD rats
- condition.description: SD, rat, plasma, po; i.g. 2 mg/kg single dose, male rats; read-out: t1/2z (converted)
- Method: Pharmacokinetic studies of verticinone after intravenous (i.v.) and intragastrical (i.g.) administration to rats were designed to determine pharmacokinetic parameters and absolute bioavailability. […] The quantification of verticinone was performed by a LC-MS method based on the previously reported method with slight modifications. […] The pharmacokinetic parameters were calculated by the DAS 2.0 software (Chinese Pharmacological Association, Beijing, China) using a standard non-compartmental method. […]
measured.endpoint: half-life (h)
# output: bare number, implied unit h

Q: Need half-life of `C[C@H]1CC[C@@H]2N(C1)C[C@H]1[C@@H]3C[C@H]4[C@@H](CC(=O)[C@H]5C[C@@H](O)CC[C@@]54C)[C@@H]3CC[C@@H]1[C@]2(C)O` , thanks.
A: 3.05

---

- test.summary: Single-dose plasma pharmacokinetics after i.g. administration
- Format: in vivo, SD rats
- condition.description: SD, rat, plasma, po; i.g. 4 mg/kg single dose, female rats
measured.endpoint: Tmax

Q: For `C[C@H]1CC[C@@H]2N(C1)C[C@H]1[C@@H]3C[C@H]4[C@@H](CC(=O)[C@H]5C[C@@H](O)CC[C@@]54C)[C@@H]3CC[C@@H]1[C@]2(C)O` , what is its reported Tmax?
A: 24 min

---

- test.summary: Single-dose plasma pharmacokinetics after i.g. administration
- Format: in vivo, SD rats
- condition.description: SD, rat, plasma, po; i.g. 4 mg/kg single dose, female rats; read-out: MRT0–t
measured.endpoint: MRT last
Remember to put the unit after the number in your answer.

Q: Entry `C[C@H]1CC[C@@H]2N(C1)C[C@H]1[C@@H]3C[C@H]4[C@@H](CC(=O)[C@H]5C[C@@H](O)CC[C@@]54C)[C@@H]3CC[C@@H]1[C@]2(C)O` : reported MRT last = ?
A: 2.04 h
